# Test system: NCI-H226 lung
# test: NCI tumour cell line growth inhibition, 48 h; in the data active = GI50 below about 0.43 µM; inactive = the rest
Labels: active, inactive

- CCCCOC(=O)c1ccc(N)cc1: inactive
- O=S(=O)([O-])c1ccc(N=Cc2ccccc2[O-])cc1.O=S(=O)([O-])c1ccc(N=Cc2ccccc2[O-])cc1.[Co+2]: inactive
- COC(=O)c1ccc2c(c1)C(=O)c1c-2n(CCCCl)c(=O)c2cc([N+](=O)[O-])ccc12: inactive
- O=C(CCl)NCCNc1nccc(Nc2ccc(S(=O)(=O)Nc3ccccn3)cc2)n1: inactive
- C=C1C(=O)O[C@H]2[C@H]1CC/C(COC(=O)NCc1c[nH]c3ccccc13)=C\CC[C@@]1(C)O[C@@H]21: inactive
- CSc1c(C2=C(c3cn(C)c4ccccc34)C(=O)NC2=O)c2ccccc2n1C: inactive
- Cc1nc2c(c(N3CCCc4ccccc43)n1)CCC2: active
- COc1cc2c(c(OC)c1OC)-c1ccc(O)cc1[C@@H](NC(C)=O)CC2: active
- CCCCN1CCCC[C@@H]1C(=O)N[C@H](C(=O)N(C)[C@H](C[C@@H](OC(C)=O)c1nc(C(=O)NC2CCC(C(=O)OC)CC2)cs1)C(C)C)C(C)C (some centres not stated): inactive
- CC1=CC(C)=NN=C(N)N1S(=O)(=O)c1cc(C)c(Cl)cc1SCc1ccccc1: inactive
- O=C1/C=C/[C@@H](O)[C@@H]2C[C@@H](O)C[C@H]2/C=C/CCC[C@H](CCc2cccc3ccccc23)O1: active
- COc1cc(C(=O)O[C@H](C(=O)NCCCNC(=O)[C@@H](OC(=O)c2cc(OC)cc3c(C)cccc23)[C@]2(C)CO2)[C@]2(C)CO2)c2cccc(C)c2c1: active
